species on record: Rattus norvegicus; assay: DrugMatrix - Regimen: Daily Repeat; type: toxicity, organism-based, Sprague-Dawley; set-up: regimen Daily Repeat, gender Male, age 6-8 weeks; conditions: in vivo, po, 0 mg/kg, 120 h, tissue Blood, route oral GAVAGE, dose level Control, time 5 day, vehicle 100 % WATER
# key: entry, value: ABSOLUTE SEGMENTED NEUTROPHIL

{"MOLECULE": "NNc1nncc2ccccc12 [HYDRALAZINE]", "ABSOLUTE SEGMENTED NEUTROPHIL [CELLS/uL]": 1283}
{"MOLECULE": "CC(C)(C)CC(C)(C)c1ccc(OCCOCC[N+](C)(C)Cc2ccccc2)cc1.[Cl-] [BENZETHONIUM CHLORIDE]", "ABSOLUTE SEGMENTED NEUTROPHIL [CELLS/uL]": 1283}
{"MOLECULE": "CCN(CC)CCNC(=O)c1cc(S(C)(=O)=O)ccc1OC [TIAPRIDE]", "ABSOLUTE SEGMENTED NEUTROPHIL [CELLS/uL]": 1137.17}
{"MOLECULE": "C[C@]12C=CC(=O)C=C1CC[C@@H]1[C@@H]2[C@@H](O)C[C@@]2(C)[C@H]1CC[C@]2(O)C(=O)CO", "ABSOLUTE SEGMENTED NEUTROPHIL [CELLS/uL]": 2102.33}

* * *

species on record: Rattus norvegicus; format: toxicity, organism-based, Sprague-Dawley; conditions: in vivo, po, 0 mg/kg, 24 h, vehicle control, tissue Blood, route oral GAVAGE, dose level Control, time 1 day, vehicle 100 % SALINE
Description: DrugMatrix - Regimen: Single

{"MOLECULE": "Nc1ncnc2c1ncn2[C@@H]1O[C@H](CO)[C@@H](O)[C@H]1F [2'-BETA-FLUORO-2',3'-DEOXYADENOSINE]", "ABSOLUTE EOSINOPHIL, cells/µL": 86.7}

* * *

species: Rattus norvegicus; assay: DrugMatrix - Regimen: Daily Repeat; type: toxicity, organism-based, Sprague-Dawley; set-up: regimen Daily Repeat, gender Male, age 6-8 weeks; settings: in vivo, po, 0 mg/kg, 72 h, tissue Plasma, route oral GAVAGE, dose level Control, time 3 day, vehicle 100 % WATER
MEASURE NAME: URIC ACID (mg/dL)

{"MOLECULE": "O.O.O.O.O.O.[Cl-].[Cl-].[Sr+2] [STRONTIUM CHLORIDE HEXAHYDRATE]", "MEASURE NAME": "URIC ACID", "TEST VALUE": 1.38}
{"MOLECULE": "CC(C)(C)CC(C)(C)c1ccc(OCCOCC[N+](C)(C)Cc2ccccc2)cc1.[Cl-] [BENZETHONIUM CHLORIDE]", "MEASURE NAME": "URIC ACID", "TEST VALUE": 1.42}
{"MOLECULE": "CN(C)CC[C@@H](c1ccc(Cl)cc1)c1ccccn1 [DEXCHLORPHENIRAMINE]", "MEASURE NAME": "URIC ACID", "TEST VALUE": 1.57}
{"MOLECULE": "CS(=O)(=O)c1ccc([C@@H](O)[C@@H](CO)NC(=O)C(Cl)Cl)cc1 [THIAMPHENICOL]", "MEASURE NAME": "URIC ACID", "TEST VALUE": 1.38}
{"MOLECULE": "CN(C)CCOC(c1ccccc1)c1ccccc1 [DIPHENHYDRAMINE]", "MEASURE NAME": "URIC ACID", "TEST VALUE": 1.42}
{"MOLECULE": "Cc1ccc(NC(=O)c2ccc(CN3CCN(C)CC3)cc2)cc1Nc1nccc(-c2cccnc2)n1 [IMATINIB]", "MEASURE NAME": "URIC ACID", "TEST VALUE": 1.38}
{"MOLECULE": "Cn1c(=O)c2[nH]cnc2n(C)c1=O.O [THEOPHYLLINE]", "MEASURE NAME": "URIC ACID", "TEST VALUE": 1.7}
{"MOLECULE": "CCN(CC)CCNC(=O)c1cc(S(C)(=O)=O)ccc1OC [TIAPRIDE]", "MEASURE NAME": "URIC ACID", "TEST VALUE": 1.38}
{"MOLECULE": "C[C@]12C=CC(=O)C=C1CC[C@@H]1[C@@H]2[C@@H](O)C[C@@]2(C)[C@H]1CC[C@]2(O)C(=O)CO [PREDNISOLONE]", "MEASURE NAME": "URIC ACID", "TEST VALUE": 1.67}
{"MOLECULE": "CN1[C@@H]2CC[C@H]1C[C@@H](OC(=O)C(CO)c1ccccc1)C2 (some centres not stated) [ATROPINE]", "MEASURE NAME": "URIC ACID", "TEST VALUE": 1}
{"MOLECULE": "CC(C)NCC(O)c1ccc(NS(C)(=O)=O)cc1 (configuration not stated) [SOTALOL]", "MEASURE NAME": "URIC ACID", "TEST VALUE": 1.58}
{"MOLECULE": "NNc1nncc2ccccc12 [HYDRALAZINE]", "MEASURE NAME": "URIC ACID", "TEST VALUE": 1.42}

* * *

# key: entry, value: TOTAL BILIRUBIN
organism: Rattus norvegicus; assay: DrugMatrix - Regimen: Daily Repeat; format: toxicity, organism-based, Sprague-Dawley; parameters: regimen Daily Repeat, gender Male, age 6-8 weeks; conditions: in vivo, po, 10 mg/kg, 72 h, tissue Plasma, route oral GAVAGE, dose level Low, time 3 day, vehicle .5 % CMC

{"COMPOUND": "Fc1ccc(C(c2ccc(F)cc2)N2CCN(C/C=C/c3ccccc3)CC2)cc1 [FLUNARIZINE]", "TOTAL BILIRUBIN, mg/dL": 0.2}
{"COMPOUND": "O=C1C(CC[S+]([O-])c2ccccc2)C(=O)N(c2ccccc2)N1c1ccccc1 (centres undefined) [SULFINPYRAZONE]", "TOTAL BILIRUBIN, mg/dL": 0.2}
{"COMPOUND": "CNCCC(Oc1ccc(C(F)(F)F)cc1)c1ccccc1 (centres undefined) [FLUOXETINE]", "TOTAL BILIRUBIN, mg/dL": 0.33}
{"COMPOUND": "O=C1CN=C(c2ccccc2Cl)c2cc([N+](=O)[O-])ccc2N1 [CLONAZEPAM]", "TOTAL BILIRUBIN, mg/dL": 0.1}

* * *

# key: entry, value: CREATINE PHOSPHOKINASE
organism: Rattus norvegicus; assay: DrugMatrix - Regimen: Daily Repeat; assay type: toxicity, organism-based, Sprague-Dawley; set-up: regimen Daily Repeat, gender Male, age 6-8 weeks; details: in vivo, po, 0 mg/kg, 72 h, tissue Plasma, route oral GAVAGE, dose level Control, time 3 day, vehicle 100 % WATER
MEASURE NAME: CREATINE PHOSPHOKINASE (u/L)

{"MOLECULE": "Cc1ccc(NC(=O)c2ccc(CN3CCN(C)CC3)cc2)cc1Nc1nccc(-c2cccnc2)n1", "TEST VALUE": 276.17}
{"MOLECULE": "CC(C)NCC(O)c1ccc(NS(C)(=O)=O)cc1 (stereo not drawn)", "TEST VALUE": 285}
{"MOLECULE": "CC(C)(C)CC(C)(C)c1ccc(OCCOCC[N+](C)(C)Cc2ccccc2)cc1.[Cl-] [BENZETHONIUM CHLORIDE]", "TEST VALUE": 532.5}
{"MOLECULE": "CS(=O)(=O)c1ccc([C@@H](O)[C@@H](CO)NC(=O)C(Cl)Cl)cc1", "TEST VALUE": 276.17}
{"MOLECULE": "CCN(CC)CCNC(=O)c1cc(S(C)(=O)=O)ccc1OC [TIAPRIDE]", "TEST VALUE": 276.17}
{"MOLECULE": "CN(C)CCOC(c1ccccc1)c1ccccc1 [DIPHENHYDRAMINE]", "TEST VALUE": 532.5}
{"MOLECULE": "CN(C)CC[C@@H](c1ccc(Cl)cc1)c1ccccn1", "TEST VALUE": 601.83}
{"MOLECULE": "NNc1nncc2ccccc12 [HYDRALAZINE]", "TEST VALUE": 532.5}
{"MOLECULE": "CN1[C@@H]2CC[C@H]1C[C@@H](OC(=O)C(CO)c1ccccc1)C2 (stereo partly drawn)", "TEST VALUE": 211.33}
{"MOLECULE": "C[C@]12C=CC(=O)C=C1CC[C@@H]1[C@@H]2[C@@H](O)C[C@@]2(C)[C@H]1CC[C@]2(O)C(=O)CO", "TEST VALUE": 506.83}
{"MOLECULE": "O.O.O.O.O.O.[Cl-].[Cl-].[Sr+2] [STRONTIUM CHLORIDE HEXAHYDRATE]", "TEST VALUE": 276.17}
{"MOLECULE": "Cn1c(=O)c2[nH]cnc2n(C)c1=O.O", "TEST VALUE": 272.17}
{"MOLECULE": "Oc1cccc(O)c1O", "TEST VALUE": 139.5}
